test: Pharmacokinetics in whole blood, cynomolgus monkeys; settings: male, cynomolgus monkey, in vivo, 300 mg/kg, Fosmetpantotenate blood concentration, Cyno #2, male cynomolgus monkeys, fosmetpantotenate 300 mg/kg oral, blood, 0.167 hr
Property name: concentration at 0.167 h (nM)
Answers are plain numbers, in nM.

Problem: Fill blank: measured concentration at 0.167 h of the compound COC(=O)CCNC(=O)[C@H](O)C(C)(C)COP(=O)(N[C@@H](C)C(=O)OC)Oc1ccccc1 (mixture of isomers) [Fosmetpantotenate] is ____.
Result: 1720

====

assay: Pharmacokinetics in whole blood, cynomolgus monkeys; conditions: cynomolgus monkey, in vivo, po, 300 mg/kg, Concentration of compound 1 in whole blood, cynomolgus monkeys, single oral 300 mg/kg fosmetpantotenate, 0.083 hr, sum of diastereomers, LLOQ 1.58 nM
Property name: concentration at 0.083 h (nM)
Give bare numbers, in nM.

Problem: Fill blank: measured concentration at 0.083 h of the compound COC(=O)CCNC(=O)[C@@H]1OP(=O)(N[C@@H](C)C(=O)OC)OCC1(C)C (stereo partly shown) is ____.
Result: 17.2
